Kindly supply the reported melting point values for the records listed here.
Residues, ends and D or L forms follow the SMILES beside them. *: point of attachment. Cbz = O=C(OCc1ccccc1)*; Boc = CC(C)(C)OC(=O)*

Read the entry CCOC(=O)c1nc2c(C(=O)OCC)cccn2c1[N+](=O)[O-] and write its reported melting point. 139 to 140 °C

Read the entry Cc1cc(-c2c(F)cc3c(=O)c(Cc4c(O)cccc4O)cn(C4CC4)c3c2F)cc(C)n1 and write its reported melting point. 308 to 310 °C

Read the entry CCOC(=O)c1sc2ccc3c(c2c1Cl)O[C@@H](CO)CO3 and write its reported melting point. 165 to 166 °C

Read the entry CCOC(=O)N1CCC(N)(CC#N)CC1 and write its reported melting point. 68 to 69 °C

Read the entry Fc1ccc(F)c(-c2nc(-c3ccccn3)no2)c1 and write its reported melting point. 120 to 126 °C

Read the entry CC(NC(=O)OCc1ccccc1)C(=O)NC(C(=O)NC(CCCCNC(=O)OC(C)(C)C)C(N)=O)C(C)C (stereo not drawn) (Cbz-Ala-Val-Lys(Boc)-NH2; configuration not given here) and write its reported melting point. 214 to 217 °C

Read the entry COC(=O)[C@H]1O[C@@H](n2cnc3c(Cl)ncnc32)[C@H](OC(C)=O)[C@@H]1N=[N+]=[N-] and write its reported melting point. 94 to 96 °C

Read the entry CC(=O)c1c(C(=O)N(C)C)[nH]c2ccc(Cl)cc12 and write its reported melting point. 150 to 155 °C

Read the entry C=CCCn1cnc2c1c(=O)[nH]c(=O)n2C and write its reported melting point. 245 to 246 °C

Read the entry CCCCCCCCOCCCCC(=O)O and write its reported melting point. < 30 °C

Read the entry CONC(c1ccccc1)c1cc(C(C)(C)C)c(O)c(C(C)(C)C)c1 (centres undefined) and write its reported melting point. 135 to 137 °C

Read the entry CCn1cc(C(=O)O)c(=O)c2c(C)c(F)c(F)c(F)c21 and write its reported melting point. 203 to 204 °C

Read the entry CCCCn1c(NCCC)nc2ccc(Br)cc2c1=O and write its reported melting point. 71 to 73 °C

Read the entry NC(=O)Cn1cc2c(n1)CN=C(c1ccccc1)c1cc(Cl)ccc1-2 and write its reported melting point. 236 to 238 °C

###

MEASURE NAME: melting point

Read the entry Cc1ccccc1-c1ccc(C(=O)N2Cc3cccn3Cc3ccccc32)cc1C and write its reported melting point. 145 to 148 °C

Read the entry COc1cc(C2C3=C(COC3=O)Nc3ccc4cc(C)[nH]c4c32)ccc1F (centres undefined) and write its reported melting point. 198 to 199 °C

Read the entry Cc1cc(-c2cccc(C(F)(F)F)c2)c2nc(C(F)(F)F)cnc2c1 and write its reported melting point. 117 to 118 °C

Read the entry NC(C=Cc1ccccc1)=NO and write its reported melting point. 85 to 87 °C

###

Kindly supply the reported melting point values for the records listed here.

Read the entry COC(=O)C1=C(C)NC(C)=C(C(=O)OCCc2ccc(O)cc2)C1c1cccc([N+](=O)[O-])c1 (stereo not drawn) and write its reported melting point. 107 to 109 °C

Read the entry CC(=O)Nc1ccc(OCC(=O)NC2CCN(Cc3ccc(Cl)c(Cl)c3)CC2)cc1 and write its reported melting point. 177 to 178 °C

Read the entry O=c1[nH]nc2cc(C(c3c(F)ccc(F)c3F)S(=O)(=O)CCC(F)(F)F)c(Cl)cn12 (stereo not drawn) and write its reported melting point. 209 to 211 °C

Read the entry Cc1cc(C(=O)CCc2cc(-c3ccc(C(F)(F)F)cc3)nn2Cc2ccccc2)ccc1OC(C)(C)C(=O)O and write its reported melting point. 55 °C

Read the entry O=C(CN1CCN(CCSc2nc3cccc(C(F)(F)F)c3o2)CC1)Nc1c(C(F)(F)F)cc(O)cc1C(F)(F)F and write its reported melting point. 176 to 177 °C

Read the entry O=[N+]([O-])c1ccccc1NCC12CC3CC(CC(C3)C1)C2 and write its reported melting point. 106 to 109 °C

Read the entry COc1ccccc1NC(=O)Nc1nc(Nc2ccc(CC(=O)O)cc2)nc(Oc2ccc3ccccc3c2)n1 and write its reported melting point. 232 to 240 °C

Read the entry O=c1ccc2c(-c3ccncc3)nccc2[nH]1 and write its reported melting point. > 300 °C

Read the entry CCC=CCC=CCC=CCCCCCCCC(=O)OCC(COC(=O)CCCCCCCC=CCC=CCC=CCC)OCn1cnc2c(=O)[nH]c(N)nc21 (stereo not drawn) and write its reported melting point. 242 to 243 °C

Read the entry C=CCCOc1ccc(CCCO)c(Oc2ncc(C(F)(F)F)cc2Cl)c1 and write its reported melting point. 75.2 to 75.8 °C

Read the entry COc1ccc2ccc(C(N)=O)c(OC(C)C)c2c1 and write its reported melting point. 172 to 174 °C

Read the entry CCCCCCCCCCCCCCOC(=O)c1cc(N)cc(C(=O)OCCCCCCCCCCCCCC)c1 and write its reported melting point. 74 to 75 °C

Read the entry Clc1cc(CCCn2ccnc2)ccc1OCc1coc(-c2cccs2)n1 and write its reported melting point. 93 to 94 °C

Read the entry Cc1ccc(Cl)cc1NC(=S)Nc1ccn(C)n1 and write its reported melting point. 217 to 218 °C

Read the entry Cc1cccc(NC(=O)NCC(=O)N2[C@@H](C(=O)OC(C)(C)C)CC[C@H]2c2ccccc2)c1 (racemic) and write its reported melting point. 156 °C

Read the entry CCCCCC1CCc2cc(C(N)=O)ccc2C1 (stereo not drawn) and write its reported melting point. 166 to 168 °C

Read the entry CS(=O)(=O)c1ccc(-c2cnn(-c3cccc(Cl)c3)c(=O)c2Cc2ccc(F)cc2)cc1 and write its reported melting point. 183 to 185 °C

Read the entry NC(=O)CCn1c(=S)sc2ccc(Cl)cc21 and write its reported melting point. 215 to 217 °C

###

MEASURE NAME: melting point

Read the entry CC=C1CCC2C3CCC4CC(O)C(OCC)CC4(C)C3C(=O)CC12C (configuration not stated) and write its reported melting point. 172 to 178 °C

Read the entry Cc1c(C)c2c(c(C)c1NC(=O)NCCO)C(c1ccc(C(C)C)cc1)CO2 (configuration not stated) and write its reported melting point. 186 to 188 °C

Read the entry O=C(O)/C=C/c1ccc(-c2nc3c(=O)n(CCC4=CCCCC4)c(=O)n(CCC4=CCCCC4)c3[nH]2)cc1 and write its reported melting point. > 250 °C

Read the entry O=C(c1cccnc1)N1CCC(c2ccccc2[N+](=O)[O-])=N1 and write its reported melting point. 123 to 125 °C

Read the entry Cc1cc2cnnc(OCc3ccc(F)cc3)c2n1Cc1ccccc1 and write its reported melting point. 127 to 132 °C

Read the entry Cc1cnc(-c2ccc(O)cc2)o1 and write its reported melting point. 177 to 178 °C

Read the entry CN(C(=O)Nc1ccccc1)C1CCCCC1 and write its reported melting point. 195 to 197 °C

###

Kindly supply the reported melting point values for the records listed here.

Read the entry COc1ccc2c(c1)C(=O)c1sc(-c3ccccc3)nc1C2=O and write its reported melting point. > 260 °C

Read the entry CCc1ccc2ncc(CO)c(OC(C)C)c2c1 and write its reported melting point. 43 to 46 °C

Read the entry COc1cccc(-c2nc(-c3ccccc3C)n(C(=O)Nc3ccccc3)n2)c1 and write its reported melting point. 123 to 125 °C

Read the entry O=C(O)C1=Cc2c(Cl)cc(Cl)cc2OC1C(F)(F)F (stereo not given) and write its reported melting point. 190 to 191 °C

Read the entry COc1ccc(S(=O)(=O)N(CC(N)=O)c2ccc(Cl)cc2Cc2c(Cl)cccc2Cl)cc1OC and write its reported melting point. 195 °C

###

MEASURE NAME: melting point

Read the entry O=S(=O)(NCCSC1c2ccccc2COc2ccc(/C=C/c3ccc4cc(F)c(F)cc4n3)cc21)C(F)(F)F (centres undefined) and write its reported melting point. 84 to 87 °C

Read the entry COC(=O)c1ccc(C=CC(=O)N2CCc3c([nH]c4ccccc34)C2c2ccc3c(c2)CCO3)nc1 (centres undefined) and write its reported melting point. > 260 °C

Read the entry CCOC(=O)C=Cc1ccc(Oc2c(-c3ccc(OC)cc3)ccc3cc(OC)ccc23)cc1 and write its reported melting point. 94 to 97 °C

Read the entry CCOC(=O)c1cc2c(O)nncc2nc1Nc1ccccc1 and write its reported melting point. 257 to 260 °C

Read the entry CN(C)C(=O)Nc1cc(C(C)(C)C)[nH]n1 and write its reported melting point. 220 to 222 °C

Read the entry O=C(O)CCCC=C(c1ccccc1)c1ccccc1 and write its reported melting point. 111 to 112 °C

Read the entry COc1ccc(N(C)c2nc(N)nc3[nH]c4ccccc4c23)cc1 and write its reported melting point. 234 °C

Read the entry CCOC(=O)C1=C(C)NC(C)=C(C(=O)OCC)C1c1cccc(Cl)c1Cl and write its reported melting point. 125 to 126 °C

Read the entry C/C(=C\CC1SC(=O)NC1=O)c1cccc(OCc2nc(-c3ccc(OC(F)(F)F)cc3)oc2C)c1 (centres undefined) and write its reported melting point. 50 to 51 °C

Read the entry COCc1c[nH]c2c([N+](=O)[O-])ccc(C)c2c1=O and write its reported melting point. 210 to 213 °C

Read the entry Cn1cccc1C=CC(=O)NCCCCCC(=O)NO and write its reported melting point. 103 to 105 °C

Read the entry CC(C)(CO)c1cc(NC(=O)C(C)(C)S(=O)(=O)CCC(F)(F)F)on1 and write its reported melting point. 162 to 163 °C

Read the entry CC(=O)Nc1ccc(-c2cccc(C3=NC(C)(C)Cc4ccc5c(c43)CC(C)(C)O5)c2)cc1 and write its reported melting point. 198 to 200 °C

Read the entry CC(C)C(=O)Nc1c(Cl)cccc1C(=O)Nc1ccc(OC(F)(F)F)cc1 and write its reported melting point. 230 to 233 °C
